Measured MIC, listed per entry for reference.
tested on: Enterococcus faecium; assay: Antimicrobial activity against Enterococcus faecium ATCC 19434 by broth dilution method; type: functional
Only the number, expressed in µg/mL, is required.

Find MIC (Enterococcus faecium) for the entry `CCCCOc1ccc2cc(S(=O)(=O)Nc3ccc(O)cc3C(=O)O)ccc2c1`
256

Then this compound:
Record CCCCOc1ccc2cc(S(=O)(=O)NC3CCC(C(=O)O)CC3C(=O)O)ccc2c1 (racemic) : what is its MIC with Enterococcus faecium?
128

* * *

system: Escherichia coli; assay: Inhibition of Escherichia coli MurD ligase assessed as residual activity at 1 mM after 30 mins
Binary call on Activity: Fulfilled from 90% upward, Not fulfilled beneath that.

As a guide, the following entries are already answered.
Assess whether reported Activity for `N#Cc1ccc(COc2ccc3cc(S(=O)(=O)Nc4cc(C(=O)O)cc(C(=O)O)c4)ccc3c2)c(F)c1` sits at 90% or higher.
Not fulfilled

How about `CCCCOc1ccc2cc(S(=O)(=O)N[C@@H]3CCCC[C@H]3C(=O)O)ccc2c1` ?
Fulfilled

Would you mind doing `CCCCOc1ccc2cc(S(=O)(=O)N[C@H]3CCCC[C@H]3C(=O)O)ccc2c1` as well?
Fulfilled

New cases:
hey, is Activity for this one >= 90%? `N#Cc1ccc(COc2ccc3cc(S(=O)(=O)N[C@H]4CCCC[C@H]4C(=O)O)ccc3c2)c(F)c1`
Not fulfilled
